# Test system: Staphylococcus aureus
# assay-procedure: Antibacterial activity against erythromycin A-susceptible Staphylococcus aureus B0329 by agar microdilution method

molecule | unit-annotation | measurement-qualifier | MIC
CC[C@H]1OC(=O)[C@H](C)C(=O)[C@H](C)[C@@H](O[C@@H]2O[C@H](C)C[C@H](N(C)C)[C@H]2O)[C@](C)(OCC(O)CNCCNc2cnc3ccccc3c2)C[C@@H](C)NC(=O)[C@H](C)[C@@H](O)[C@]1(C)O (mixture of isomers) | µg/mL | = | 1
CC[C@H]1OC(=O)[C@H](C)C(=O)[C@H](C)[C@@H](O[C@@H]2O[C@H](C)C[C@H](N(C)C)[C@H]2O)[C@](C)(OC[C@@H](O)CNCCNc2ccc3ncccc3c2)C[C@@H](C)NC(=O)[C@H](C)[C@@H](O)[C@]1(C)O | µg/mL | ≤ | 0.125
CC[C@H]1OC(=O)[C@H](C)C(=O)[C@H](C)[C@@H](O[C@@H]2O[C@H](C)C[C@H](N(C)C)[C@H]2O)[C@](C)(OCC(O)CN2CCN(c3ccc([N+](=O)[O-])cc3)CC2)C[C@@H](C)NC(=O)[C@H](C)[C@@H](O)[C@]1(C)O (some centres undefined) | µg/mL | = | 1
CC[C@H]1OC(=O)[C@H](C)C(=O)[C@H](C)[C@@H](O[C@@H]2O[C@H](C)C[C@H](N(C)C)[C@H]2O)[C@](C)(OCC(O)CN2CCN(c3cnc4ccccc4c3)CC2)C[C@@H](C)NC(=O)[C@H](C)[C@@H](O)[C@]1(C)O (some centres undefined) | µg/mL | = | 1
